Test system: Mycobacterium tuberculosis
ASSAY_OVERVIEW: Antitubercular activity against Mycobacterium tuberculosis H37Rv after 6 weeks
Assay type: functional
MEASURED_PROPERTY: MIC (µg/mL)

{"COMPOUND": "CC(=O)N1N=C(c2ccccc2Br)CC1c1cc(N)c(O)c(Cl)c1 (stereo not given)", "MEASURED_PROPERTY": "MIC", "EXPERIMENTAL_VALUE": 12.5}
{"COMPOUND": "COc1cc(C2CC(c3ccc(Cl)cc3Cl)=NN2C(C)=O)cc(N)c1O (stereo not given)", "MEASURED_PROPERTY": "MIC", "EXPERIMENTAL_VALUE": 12.5}
{"COMPOUND": "COc1cc(C2CC(c3ccc(F)cc3)=NN2C(C)=O)cc2nc(S)oc12 (stereo not given)", "MEASURED_PROPERTY": "MIC", "EXPERIMENTAL_VALUE": 12.5}
{"COMPOUND": "CC(=O)N1N=C(c2ccccc2)CC1c1cc(Cl)c2oc(S)nc2c1 (stereo not given)", "MEASURED_PROPERTY": "MIC", "EXPERIMENTAL_VALUE": 1.25}
{"COMPOUND": "COc1cc(C2CC(c3ccc(F)cc3)=NN2C(C)=O)cc2nc(N)oc12 (stereo not given)", "MEASURED_PROPERTY": "MIC", "EXPERIMENTAL_VALUE": 6.25}
{"COMPOUND": "CC(=O)N1N=C(c2ccccc2Br)CC1c1ccc2oc(S)nc2c1 (stereo not given)", "MEASURED_PROPERTY": "MIC", "EXPERIMENTAL_VALUE": 12.5}
{"COMPOUND": "COc1cc(C2CC(c3ccccc3Br)=NN2C(C)=O)cc2nc(N)oc12 (stereo not given)", "MEASURED_PROPERTY": "MIC", "EXPERIMENTAL_VALUE": 12.5}
{"COMPOUND": "COc1cc(C2CC(c3ccc(F)cc3)=NN2C(C)=O)cc(N)c1O (stereo not given)", "MEASURED_PROPERTY": "MIC", "EXPERIMENTAL_VALUE": 12.5}
{"COMPOUND": "COc1cc(C2CC(c3ccccc3)=NN2C(C)=O)cc2nc(N)oc12 (stereo not given)", "MEASURED_PROPERTY": "MIC", "EXPERIMENTAL_VALUE": 0.625}
{"COMPOUND": "COc1cc(C2CC(c3ccc(Cl)cc3Cl)=NN2C(C)=O)cc2nc(S)oc12 (stereo not given)", "MEASURED_PROPERTY": "MIC", "EXPERIMENTAL_VALUE": 6.25}
{"COMPOUND": "COc1cc(C2CC(c3ccccc3Br)=NN2C(C)=O)cc(N)c1O (stereo not given)", "MEASURED_PROPERTY": "MIC", "EXPERIMENTAL_VALUE": 12.5}
{"COMPOUND": "CC(=O)N1N=C(c2ccccc2Br)CC1c1ccc(O)c(N)c1 (stereo not given)", "MEASURED_PROPERTY": "MIC", "EXPERIMENTAL_VALUE": 0.625}
{"COMPOUND": "COc1cc(C2CC(c3ccccc3)=NN2C(C)=O)cc2nc(S)oc12 (stereo not given)", "MEASURED_PROPERTY": "MIC", "EXPERIMENTAL_VALUE": 6.25}
{"COMPOUND": "CC(=O)N1N=C(c2ccccc2)CC1c1ccc2oc(S)nc2c1 (stereo not given)", "MEASURED_PROPERTY": "MIC", "EXPERIMENTAL_VALUE": 25}
{"COMPOUND": "CC(=O)N1N=C(c2ccccc2Br)CC1c1ccc2oc(N)nc2c1 (stereo not given)", "MEASURED_PROPERTY": "MIC", "EXPERIMENTAL_VALUE": 25}
{"COMPOUND": "CC(=O)N1N=C(c2ccccc2Br)CC1c1cc(Cl)c2oc(N)nc2c1 (stereo not given)", "MEASURED_PROPERTY": "MIC", "EXPERIMENTAL_VALUE": 3.25}
{"COMPOUND": "COc1cc(C2CC(c3ccccc3Br)=NN2C(C)=O)cc2nc(S)oc12 (stereo not given)", "MEASURED_PROPERTY": "MIC", "EXPERIMENTAL_VALUE": 12.5}
{"COMPOUND": "CC(=O)N1N=C(c2ccccc2)CC1c1cc(Cl)c2oc(N)nc2c1 (stereo not given)", "MEASURED_PROPERTY": "MIC", "EXPERIMENTAL_VALUE": 25}
{"COMPOUND": "NNC(=O)c1ccncc1", "MEASURED_PROPERTY": "MIC", "EXPERIMENTAL_VALUE": 0.625}
{"COMPOUND": "CC(=O)N1N=C(c2ccccc2)CC1c1ccc(O)c(N)c1 (stereo not given)", "MEASURED_PROPERTY": "MIC", "EXPERIMENTAL_VALUE": 1.25}
{"COMPOUND": "CC(=O)N1N=C(c2ccccc2Br)CC1c1cc(Cl)c2oc(S)nc2c1 (stereo not given)", "MEASURED_PROPERTY": "MIC", "EXPERIMENTAL_VALUE": 6.25}
{"COMPOUND": "CC(=O)N1N=C(c2ccccc2)CC1c1ccc2oc(N)nc2c1 (stereo not given)", "MEASURED_PROPERTY": "MIC", "EXPERIMENTAL_VALUE": 25}
{"COMPOUND": "COc1cc(C2CC(c3ccc(Cl)cc3Cl)=NN2C(C)=O)cc2nc(N)oc12 (stereo not given)", "MEASURED_PROPERTY": "MIC", "EXPERIMENTAL_VALUE": 12.5}
{"COMPOUND": "COc1cc(C2CC(c3ccccc3)=NN2C(C)=O)cc(N)c1O (stereo not given)", "MEASURED_PROPERTY": "MIC", "EXPERIMENTAL_VALUE": 25}
{"COMPOUND": "CC(=O)N1N=C(c2ccccc2)CC1c1cc(N)c(O)c(Cl)c1 (stereo not given)", "MEASURED_PROPERTY": "MIC", "EXPERIMENTAL_VALUE": 3.25}
